biological target: Phosphodiesterase 1 (Rattus norvegicus, UniProt Q63421+Q9EPR9+Q01066); experiment: Inhibition of Phosphodiesterase 1 from rat liver
Listed below: IC50 values for each entry.
Just the number plus its unit, please.

Past entries and their recorded results:
- SMI: "CCCc1nn(C)c2c(O)nc(-c3cc(S(=O)(=O)N4CCN(C(N)=O)CC4)ccc3OCC)nc12"
  IC50: "110 nM"
- SMI: "CCCc1nn(C)c2c(=O)[nH]c(-c3ccccc3OCC)nc12"
  IC50: "790 nM"
- SMI: "CCCc1nn(C)c2c(=O)[nH]c(-c3cc(S(=O)(=O)N4CCNCC4)ccc3OCC)nc12"
  IC50: "390 nM"
- SMI: "CCCc1nn(C)c2c(=O)[nH]c(-c3cc(S(=O)(=O)N4CCN(CCO)CC4)ccc3OCC)nc12"
  IC50: "460 nM"
- SMI: "CCCOc1ccccc1-c1nc2[nH]nnc2c(=O)[nH]1"
  IC50: "9400 nM"

What value of measured IC50 is listed for CCCc1n[nH]c2c(O)nc(-c3ccccc3OCC)nc12 ? 860 nM

What value of measured IC50 is listed for CCOc1ccccc1-c1nc2c(C)nn(C)c2c(=O)[nH]1 ? 3300 nM

All values here come from ChEMBL document CHEMBL1129133.
